Data origin, for the record: PubChem BioAssay (NCI)

# System: A498 renal
# Test protocol: NCI tumour cell line growth inhibition, 384-well format
Where a SMILES comes first, the peptide text is derived from it. [ ]: non-standard residue; d: D form. The star is where a group is joined. Dolaproine = CO[C@@H]([C@@H]1CCCN1)[C@@H](C)C(=O)O; Dil = CC[C@H](C)[C@H](NC)[C@@H](CC(=O)O)OC; X2 = C[C@@H](N*)[C@@H](O)c1ccccc1; NMeV = CN[C@H](C(=O)O)C(C)C
Assay endpoint: TGI
Number plus unit, in that order.

Completed entries (count: 3):
| Compound | TGI |
| --- | --- |
| COc1cccc2[nH]c3c4c(c5c(c3c12)C(=O)N(CN1CCN(C)CC1)C5=O)CCC4 | 21.5 µM |
| C=CC(=O)N1CCN(CCCn2c(=O)c(-c3c(Cl)c(OC)cc(OC)c3Cl)cc3cnc(NC)nc32)CC1 | 4.69 µM |
| CNC(=O)c1ccccc1Nc1cc(Nc2ccc(N3CCOCC3)cc2OC)ncc1C(F)(F)F | 28.3 µM |

// below: TGI requested for another compound
Ask | Specify TGI for CC[C@H](C)[C@@H]([C@@H](CC(=O)N1CCC[C@H]1[C@H](OC)[C@@H](C)C(=O)N[C@H](C)[C@@H](O)c1ccccc1)OC)N(C)C(=O)[C@@H](NC(=O)[C@@H](NC)C(C)C)C(C)C (H-[NMeV]V[Dil][Dolaproine]-X2) and stop.
Reply | 0.0112 µM
